Below, each of the molecules is paired with its reported MIC value.
- Tested on: Bacillus subtilis
- measurementNotes: Antibacterial activity against Bacillus subtilis IID 685 after 18 hrs by microbroth dilution method
- Assay type: functional
- conditionLabel: IID 685, 18 h
Expressed in µg/mL, but write only the number.

molecule=COc1c(N2C[C@@H](N)C3(CC3)C2)c(F)cc2c(=O)c(C(=O)O)cn([C@@H]3C[C@@H]3F)c12.Cl.O unitabbrev=µg/mL result=0.05
molecule="COc1c(N2CC(C)(N)C3(CC3)C2)c(F)cc2c(=O)c(C(=O)O)cn([C@@H]3C[C@@H]3F)c12 (stereo partly specified)" unitabbrev=µg/mL result=0.39
molecule=COc1c(N2CC3(CC3)[C@](C)(N)C2)c(F)cc2c(=O)c(C(=O)O)cn([C@@H]3C[C@@H]3F)c12 unitabbrev=µg/mL result=0.1

For COc1c(N2C[C@@H]3CCCN[C@@H]3C2)c(F)cc2c(=O)c(C(=O)O)cn(C3CC3)c12 , write its MIC.
0.2

For O=C(O)c1cn(C2CC2)c2cc(N3CCNCC3)c(F)cc2c1=O , write its MIC.
3.12

For C[C@H]1COc2c(N3CCN(C)CC3)c(F)cc3c(=O)c(C(=O)O)cn1c23.C[C@H]1COc2c(N3CCN(C)CC3)c(F)cc3c(=O)c(C(=O)O)cn1c23.O , write its MIC.
1.56

* * *

- Test system: Mycoplasmoides pneumoniae
- measurementNotes: Antibacterial activity against Mycoplasma pneumoniae ATCC 29085 after 18 hrs by microbroth dilution method
- Assay type: functional
- conditionLabel: ATCC 29085, 18 h
Below, each of the compounds is paired with its reported MIC value.

Solved entries (count: 4):
compound="CO/N=C1\\CN(c2nc3c(cc2F)c(=O)c(C(=O)O)cn3C2CC2)CC1CN (stereo not given)" readoutname=MIC result="0.25 µg/mL"
compound=C[C@H]1COc2c(N3CCN(C)CC3)c(F)cc3c(=O)c(C(=O)O)cn1c23.C[C@H]1COc2c(N3CCN(C)CC3)c(F)cc3c(=O)c(C(=O)O)cn1c23.O readoutname=MIC result="1 µg/mL"
compound=COc1c(N2C[C@@H]3CCCN[C@@H]3C2)c(F)cc2c(=O)c(C(=O)O)cn(C3CC3)c12 readoutname=MIC result="0.12 µg/mL"
compound=COc1c(N2CC3(CC3)[C@](C)(N)C2)c(F)cc2c(=O)c(C(=O)O)cn([C@@H]3C[C@@H]3F)c12 readoutname=MIC result="0.12 µg/mL"

For C[C@H]1NCc2cc(-c3ccc4c(=O)c(C(=O)O)cn(C5CC5)c4c3OC(F)F)ccc21 , write its MIC.
0.06 µg/mL

* * *

- measurementNotes: Drug recovery in cynomolgus monkey urine at 5 mg/kg, po after 24 hrs
- Assay type: ADME, organism-based, Macaca fascicularis
- Parameters: dose 5 mg/kg, route oral
- conditionLabel: read-out: Drug recovery
readoutName: dose excreted at 24 h (%)
Expressed in %, but write only the number.

compound=COc1c(N2CC3(CC3)[C@](C)(N)C2)c(F)cc2c(=O)c(C(=O)O)cn([C@@H]3C[C@@H]3F)c12 unitabbrev=% result=61.3
compound=C[C@H]1COc2c(N3CCN(C)CC3)c(F)cc3c(=O)c(C(=O)O)cn1c23.C[C@H]1COc2c(N3CCN(C)CC3)c(F)cc3c(=O)c(C(=O)O)cn1c23.O unitabbrev=% result=73.9

For COc1c(N2C[C@@H](N)C3(CC3)C2)c(F)cc2c(=O)c(C(=O)O)cn([C@@H]3C[C@@H]3F)c12.Cl.O , write its dose excreted at 24 h.
41

For COc1c(N2C[C@@H]3CCCN[C@@H]3C2)c(F)cc2c(=O)c(C(=O)O)cn(C3CC3)c12.Cl.O [MOXIFLOXACIN HYDROCHLORIDE HYDRATE] , write its dose excreted at 24 h.
8.1

* * *

Below, each of the compounds is paired with its reported MIC value.
- Test system: Staphylococcus aureus
- measurementNotes: Antibacterial activity against levofloxacin-resistant and methicillin-resistant Staphylococcus aureus 870307 after 18 hrs by microbroth dilution method
- Type: functional
- conditionLabel: Staphylococcus aureus, 870307, 18 h
Expressed in µg/mL, but write only the number.

compound="COc1c(N2CC(C)(N)C3(CC3)C2)c(F)cc2c(=O)c(C(=O)O)cn([C@@H]3C[C@@H]3F)c12 (stereo partly drawn)" system="Staphylococcus aureus" readoutname=MIC result=1.56

Alright, here's another compound for you.
For COc1c(N2CC3(CC3)[C@](C)(N)C2)c(F)cc2c(=O)c(C(=O)O)cn([C@@H]3C[C@@H]3F)c12 , write its MIC.
0.39

* * *

- measurementNotes: AUC (0 to 8 hrs) in Crj:CD rat kidney at 5 mg/kg, po
- Type: ADME, organism-based
- Set-up: time < 8 hr, dose 5 mg/kg, route oral
Below, each of the compounds is paired with its reported AUC(0-t) at 8 h value.
Expressed in ng·h/mL, but write only the number.

Solved entries (count: 3):
compound=C[C@H]1COc2c(N3CCN(C)CC3)c(F)cc3c(=O)c(C(=O)O)cn1c23.C[C@H]1COc2c(N3CCN(C)CC3)c(F)cc3c(=O)c(C(=O)O)cn1c23.O readoutname="AUC(0-t) at 8 h" unitabbrev=ng·h/mL result=19300
compound="COc1c(N2C[C@@H]3CCCN[C@@H]3C2)c(F)cc2c(=O)c(C(=O)O)cn(C3CC3)c12.Cl.O [MOXIFLOXACIN HYDROCHLORIDE HYDRATE]" readoutname="AUC(0-t) at 8 h" unitabbrev=ng·h/mL result=30300
compound=COc1c(N2C[C@@H](N)C3(CC3)C2)c(F)cc2c(=O)c(C(=O)O)cn([C@@H]3C[C@@H]3F)c12.Cl.O readoutname="AUC(0-t) at 8 h" unitabbrev=ng·h/mL result=19300

For COc1c(N2CC3(CC3)[C@](C)(N)C2)c(F)cc2c(=O)c(C(=O)O)cn([C@@H]3C[C@@H]3F)c12 , write its AUC(0-t) at 8 h.
27800

* * *

- measurementNotes: Primary phase half life in cynomolgus monkey serum at 5 mg/kg, iv
- Format: ADME, organism-based, Macaca fascicularis
- Set-up: dose 5 mg/kg, route intravenous
- conditionLabel: read-out: alphat1/2 (converted)
readoutName: half-life (h)
Expressed in h, but write only the number.

structurestring=COc1c(N2CC3(CC3)[C@](C)(N)C2)c(F)cc2c(=O)c(C(=O)O)cn([C@@H]3C[C@@H]3F)c12 result=4.8

Alright, here's another molecule for you.
For COc1c(N2C[C@@H](N)C3(CC3)C2)c(F)cc2c(=O)c(C(=O)O)cn([C@@H]3C[C@@H]3F)c12.Cl.O , write its half-life.
2.1

* * *

Below, each of the molecules is paired with its reported dose excreted at 24 h value.
- measurementNotes: Drug recovery in Crj:CD rat urine at 5 mg/kg, po after 24 hrs
- Type: ADME, organism-based
- Set-up: dose 5 mg/kg, route oral
- conditionLabel: read-out: Drug recovery
Expressed in %, but write only the number.

Solved entries (count: 3):
molecule="COc1c(N2C[C@@H]3CCCN[C@@H]3C2)c(F)cc2c(=O)c(C(=O)O)cn(C3CC3)c12.Cl.O [MOXIFLOXACIN HYDROCHLORIDE HYDRATE]" result=25.7
molecule=COc1c(N2C[C@@H](N)C3(CC3)C2)c(F)cc2c(=O)c(C(=O)O)cn([C@@H]3C[C@@H]3F)c12.Cl.O result=23.1
molecule=C[C@H]1COc2c(N3CCN(C)CC3)c(F)cc3c(=O)c(C(=O)O)cn1c23.C[C@H]1COc2c(N3CCN(C)CC3)c(F)cc3c(=O)c(C(=O)O)cn1c23.O result=80

For COc1c(N2CC3(CC3)[C@](C)(N)C2)c(F)cc2c(=O)c(C(=O)O)cn([C@@H]3C[C@@H]3F)c12 , write its dose excreted at 24 h.
32

* * *

- system: hERG (KCNH2) (Homo sapiens, UniProt Q12809)
- Sequence (Q12809 whole entry): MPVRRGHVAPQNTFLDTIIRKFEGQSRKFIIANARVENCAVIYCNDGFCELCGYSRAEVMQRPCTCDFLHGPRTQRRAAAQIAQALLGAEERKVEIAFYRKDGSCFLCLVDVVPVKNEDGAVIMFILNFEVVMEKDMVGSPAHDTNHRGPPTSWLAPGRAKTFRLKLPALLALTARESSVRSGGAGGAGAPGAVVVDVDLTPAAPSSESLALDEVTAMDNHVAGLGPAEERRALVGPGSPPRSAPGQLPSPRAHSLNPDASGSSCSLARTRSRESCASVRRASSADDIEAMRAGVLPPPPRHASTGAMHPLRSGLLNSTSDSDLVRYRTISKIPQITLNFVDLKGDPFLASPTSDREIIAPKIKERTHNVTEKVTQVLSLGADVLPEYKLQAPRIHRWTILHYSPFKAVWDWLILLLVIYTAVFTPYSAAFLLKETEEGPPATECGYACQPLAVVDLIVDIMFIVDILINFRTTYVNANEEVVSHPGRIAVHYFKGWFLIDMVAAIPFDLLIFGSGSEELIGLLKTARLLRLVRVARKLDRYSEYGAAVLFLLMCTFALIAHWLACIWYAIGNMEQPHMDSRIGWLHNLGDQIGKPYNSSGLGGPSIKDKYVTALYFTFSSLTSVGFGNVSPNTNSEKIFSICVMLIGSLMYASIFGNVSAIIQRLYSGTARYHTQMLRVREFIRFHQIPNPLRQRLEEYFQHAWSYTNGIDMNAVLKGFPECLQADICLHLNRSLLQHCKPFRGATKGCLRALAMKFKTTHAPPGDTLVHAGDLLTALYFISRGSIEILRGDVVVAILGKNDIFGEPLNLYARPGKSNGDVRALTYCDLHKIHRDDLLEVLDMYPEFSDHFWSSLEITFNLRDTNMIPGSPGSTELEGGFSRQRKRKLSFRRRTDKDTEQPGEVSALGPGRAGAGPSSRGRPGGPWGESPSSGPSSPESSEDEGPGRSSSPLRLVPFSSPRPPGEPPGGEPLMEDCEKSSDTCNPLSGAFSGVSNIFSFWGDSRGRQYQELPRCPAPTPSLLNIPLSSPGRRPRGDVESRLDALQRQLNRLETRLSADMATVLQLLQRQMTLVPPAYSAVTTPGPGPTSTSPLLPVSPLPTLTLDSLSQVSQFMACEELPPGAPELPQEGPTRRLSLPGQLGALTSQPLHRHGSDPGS
- measurementNotes: Inhibition of human ERG expressed in CHOK1 cells at 100 uM
- Type: cell-based
- conditionLabel: CHO-K1 cells expressing hERG
readoutName: inhibition at 100 µM (%)
Expressed in %, but write only the number.

Solved entries (count: 2):
structurestring=COc1c(N2C[C@@H]3CCCN[C@@H]3C2)c(F)cc2c(=O)c(C(=O)O)cn(C3CC3)c12 unitabbrev=% result=42.3
structurestring=COc1c(N2C[C@@H](N)C3(CC3)C2)c(F)cc2c(=O)c(C(=O)O)cn([C@@H]3C[C@@H]3F)c12.Cl.O unitabbrev=% result=14.1

For C[C@H]1COc2c(N3CCN(C)CC3)c(F)cc3c(=O)c(C(=O)O)cn1c23.C[C@H]1COc2c(N3CCN(C)CC3)c(F)cc3c(=O)c(C(=O)O)cn1c23.O , write its inhibition at 100 µM.
4.2

For COc1c(N2CC3(CC3)[C@](C)(N)C2)c(F)cc2c(=O)c(C(=O)O)cn([C@@H]3C[C@@H]3F)c12 , write its inhibition at 100 µM.
2.7
